target: rat adrenergic α1B receptor (Rattus norvegicus); construct: rat adrenergic α1B receptor obtained from Wistar Rat liver; from tissue; host or cells: Wistar rat liver; assay: Radioligand binding, adrenergic α1B ([3H]Prazosin); settings: compound at 0.1 μM; [3H]Prazosin; repeat assays, each datapoint shown; 0.1 µM
MEASURED PROPERTY: Percentage inhibition of ligand binding, Adrenergic α1B (%)
Supply the numeric figure in %, leaving out any unit text.

Worked examples follow.
INSERT INTO assay_data (molecule, numeric_value) VALUES
  ('Cc1ccc2c(c1)c1c(n2CC(O)c2ccc(F)cc2)CCN(C)C1 (single isomer, unassigned) [30b]', 91),
  ('Cc1ccc2c(c1)c1c(n2CC(O)c2cccnc2)CCN(CCO)C1 (single isomer, unassigned) [21a]', 5);

Input line: Quick one: Percentage inhibition of ligand binding, Adrenergic α1B for Cc1ccc2c(c1)c1c(n2CC(O)c2cccnc2)CCNC1 (single isomer, unassigned) [9b] ?
Output line: 10

Input line: Which measured Percentage inhibition of ligand binding, Adrenergic α1B value corresponds to Cc1ccc2c(c1)c1c(n2CC(OC(=O)C(N)C(C)C)c2ccncc2)CCN(C)C1 (single isomer, unassigned) [25a] ?
Output line: 4

Input line: Using the record for Cc1ccc2c(c1)c1c(n2CC(O)c2ccccn2)CN(C)CC1 (single isomer, unassigned) [22b] , report its Percentage inhibition of ligand binding, Adrenergic α1B.
Output line: 9

Input line: Name the recorded Percentage inhibition of ligand binding, Adrenergic α1B for COc1ccc(C(O)Cn2c3c(c4cc(C)ccc42)CN(C)CC3)cn1 (stereo not shown) [compound 51] .
Output line: 43

Input line: Which Percentage inhibition of ligand binding, Adrenergic α1B value belongs to CN1CCc2c(n(CC(O)c3ccncc3)c3ccc(Cl)cc23)CC1 (single isomer, unassigned) [15b] ?
Output line: 93

Input line: Name the recorded Percentage inhibition of ligand binding, Adrenergic α1B for CC(C)(O)CCN1CCc2c(c3cc(Cl)ccc3n2CC(O)c2ccncc2)C1 (single isomer, unassigned) [11b] .
Output line: 18

Input line: Sample COc1ccc(C(O)Cn2c3c(c4cc(C)ccc42)CCN(C)C3)cc1 (single isomer, unassigned) [20a] — what was its Percentage inhibition of ligand binding, Adrenergic α1B?
Output line: 67

Input line: # input molecule: CN1CCc2c(c3cc(Cl)ccc3n2CC(O)c2ccncc2)C1 (stereo not shown) [compound 4] ; wanted: its Percentage inhibition of ligand binding, Adrenergic α1B
Output line: 60

Input line: Data request, read-out Percentage inhibition of ligand binding, Adrenergic α1B, for Cc1ccc2c(c1)c1c(n2CC(O)c2cccnc2)CCN(CCO)C1 (single isomer, unassigned) [21b]
Output line: −2

Input line: State the recorded Percentage inhibition of ligand binding, Adrenergic α1B for this entry: Cc1ccc2c(c1)c1c(n2CC(C)(O)c2ccc[n+]([O-])c2)CCN(C)C1 (single isomer, unassigned) [56b]
Output line: 6

###

Molecular target: human recombinant adrenergic α2B receptor (Homo sapiens)
Construct: expressed in transfected cells; host or cells: CHO-K1
Sequence (P18089 whole entry): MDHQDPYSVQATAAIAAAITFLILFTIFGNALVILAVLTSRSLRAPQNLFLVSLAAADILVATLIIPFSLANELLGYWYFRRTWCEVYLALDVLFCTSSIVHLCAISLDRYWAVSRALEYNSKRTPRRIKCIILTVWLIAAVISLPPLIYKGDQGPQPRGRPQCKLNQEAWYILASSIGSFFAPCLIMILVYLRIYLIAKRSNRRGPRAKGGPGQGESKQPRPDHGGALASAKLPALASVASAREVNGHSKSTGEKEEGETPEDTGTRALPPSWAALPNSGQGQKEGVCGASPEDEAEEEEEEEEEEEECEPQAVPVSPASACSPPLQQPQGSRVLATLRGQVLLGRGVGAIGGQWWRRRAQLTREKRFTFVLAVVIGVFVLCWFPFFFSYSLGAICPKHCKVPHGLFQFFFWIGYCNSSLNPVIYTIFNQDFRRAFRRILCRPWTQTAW
Assay: Radioligand binding, adrenergic α2B ([3H]Rauwolscine)
Settings: read-out: Percentage inhibition of ligand binding, Adrenergic α2B (0.03 μM), compound at 0.03 μM; [3H]Rauwolscine; repeat datapoints each shown
Description: To evaluate in radioligand binding assays the activity of compounds of the invention, human recombinant adrenergic α2B receptor expressed in Chinese hamster ovary (CHO) K1 cells (Uhlen, S. et al, Eur. J. Pharmacol. 343(1):93, 1998) in a modified Tris-HCl buffer (50 mM Tris-HCl, pH 7.4, 12.5 mM MgCl2, 1 mM EDTA, 0.2% BSA) was used. […] Receptor proteins were filtered and washed, the filters were then counted to determine [3H]Rauwolscine specifically bound. […]
MEASURED PROPERTY: inhibition at 0.03 µM (%)
Give the number; % is assumed, so skip it.

Answered cases to consult:
INSERT INTO results (molecule, measured_property, unit_label, numeric_value) VALUES
  ('Cc1ccc2c(c1)c1c(n2CC(CC(N)=O)c2ccncc2)CCN(C)C1 (stereo not shown)', 'inhibition at 0.03 µM', '%', 12),
  ('Cc1ccc2c(c1Cl)c1c(n2CC(C)(O)c2cccnc2)CCN(C)C1 (single isomer, unassigned) [II-124a]', 'inhibition at 0.03 µM', '%', 26),
  ('Cc1ccc2c(c1)c1c(n2CC(N=[N+]=[N-])c2cnccn2)CCN2CCCC12 (stereo not shown)', 'inhibition at 0.03 µM', '%', 103);

Here's the next entry for you.
Input line: Bench note: what inhibition at 0.03 µM did Cc1ccc(CCn2c3c(c4c(Cl)ccc(Cl)c42)CCN(C)C3)cn1 show?
Output line: 4

###

Entries and their Ki values follow.
molecular target: human recombinant adrenergic α2B receptor (Homo sapiens); construct: expressed in transfected cells; host or cells: CHO-K1; assay: Radioligand binding, adrenergic α2B ([3H]Rauwolscine); details: read-out: Ki α2B
Report the figure in µM without appending any unit label.

Previously resolved entries follow.
INSERT INTO measurements (molecule, numeric_value) VALUES
  ('C/C(=C\n1c2c(c3cc(C)ccc31)CN(C)CC2)c1ccc(C)nc1', 0.00052),
  ('Cc1ccc2c(c1)c1c(n2CC(O)c2ccncc2C)CCN(C)C1 (single isomer, unassigned) [133b]', 0.00242),
  ('Cc1ccc2c(c1)c1c(n2CC(C)(O)c2cccnc2)CCN(C)C1 (single isomer, unassigned)', 0.035);

Next item in the queue.
Input line: GET /values?readout=Ki&item= Cc1ccc(CCn2c3c(c4c(Cl)ccc(Cl)c42)CN(C)CC3)cn1
Output line: 0.206

###

target: human recombinant adrenergic α1D receptor (Homo sapiens, UniProt P25100); construct: expressed in transfected cells; host or cells: HEK-293; assay: Radioligand binding, adrenergic α1D ([3H]Prazosin); conditions: 0.1 μM compound; read-out: Percentage inhibition of ligand binding, Adrenergic α1D
Sequence (P25100 whole entry): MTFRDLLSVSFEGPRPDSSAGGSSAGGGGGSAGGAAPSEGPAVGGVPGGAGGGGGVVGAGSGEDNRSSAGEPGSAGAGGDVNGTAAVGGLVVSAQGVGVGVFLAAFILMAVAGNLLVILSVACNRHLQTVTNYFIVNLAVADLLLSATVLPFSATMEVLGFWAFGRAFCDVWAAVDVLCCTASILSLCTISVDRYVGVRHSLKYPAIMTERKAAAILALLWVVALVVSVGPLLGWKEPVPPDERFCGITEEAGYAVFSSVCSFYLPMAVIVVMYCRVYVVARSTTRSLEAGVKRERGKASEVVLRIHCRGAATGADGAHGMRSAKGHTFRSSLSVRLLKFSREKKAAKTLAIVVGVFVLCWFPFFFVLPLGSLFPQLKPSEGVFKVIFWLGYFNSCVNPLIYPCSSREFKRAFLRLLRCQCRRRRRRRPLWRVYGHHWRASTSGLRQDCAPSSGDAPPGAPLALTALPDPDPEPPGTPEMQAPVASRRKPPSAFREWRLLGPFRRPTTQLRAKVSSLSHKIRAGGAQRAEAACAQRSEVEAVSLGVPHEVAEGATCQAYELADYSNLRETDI
inhibition at 0.1 µM: recorded values
Give the number; % is assumed, so skip it.

INSERT INTO assay_data (compound, study_target, measured_property, numeric_value) VALUES
  ('C/C(=C\n1c2c(c3cc(C)ccc31)CN(C)CC2)c1ccc2cnccc2c1', 'human recombinant adrenergic α1D receptor (Homo sapiens, UniProt P25100)', 'inhibition at 0.1 µM', 79);

Input line: Would you mind telling me what inhibition at 0.1 µM value was observed for C/C(=C\n1c2c(c3cc(C)ccc31)CN(C)CC2)c1ccc2c(ccn2C)c1 ?
Output line: 46

Input line: For the compound Cc1ccc2c(c1)c1c(n2C#Cc2ccc(S(N)(=O)=O)cc2)CCN(C)C1 , what inhibition at 0.1 µM is on record?
Output line: 72

Input line: Need inhibition at 0.1 µM of Cc1ccc2c(c1)c1c(n2C#Cc2cccc3cnccc23)CCN(C)C1 , thanks.
Output line: 53

Input line: Please report the recorded inhibition at 0.1 µM for Cc1ccc2c(c1)c1c(n2CCc2ccc3c(c2)CCCC3)CCN(C)C1 .
Output line: 51

Input line: Requested field: inhibition at 0.1 µM. Item: CSc1ccc(/C(C)=C/n2c3c(c4cc(Cl)ccc42)CN(C)CC3)cc1
Output line: 65

###

# maps each entry to its inhibition at 0.03 µM
Target: rat adrenergic α1B receptor (Rattus norvegicus, UniProt P15823)
Construct: rat adrenergic α1B receptor obtained from Wistar Rat liver; from tissue; host or cells: Wistar rat liver
Sequence (P15823 1-515): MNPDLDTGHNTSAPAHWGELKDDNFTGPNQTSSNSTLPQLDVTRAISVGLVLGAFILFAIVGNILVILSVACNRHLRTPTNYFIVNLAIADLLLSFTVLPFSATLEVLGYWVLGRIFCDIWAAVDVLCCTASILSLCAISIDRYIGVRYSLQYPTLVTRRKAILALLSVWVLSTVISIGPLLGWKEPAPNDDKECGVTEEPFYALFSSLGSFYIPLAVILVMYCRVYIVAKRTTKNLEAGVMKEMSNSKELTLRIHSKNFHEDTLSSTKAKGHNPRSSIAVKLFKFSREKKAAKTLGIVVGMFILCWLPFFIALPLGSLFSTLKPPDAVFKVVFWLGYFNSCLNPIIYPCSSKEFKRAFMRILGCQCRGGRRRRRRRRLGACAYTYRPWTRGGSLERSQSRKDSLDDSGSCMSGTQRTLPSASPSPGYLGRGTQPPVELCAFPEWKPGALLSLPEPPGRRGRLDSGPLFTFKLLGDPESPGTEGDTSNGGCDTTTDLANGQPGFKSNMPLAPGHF
Test: Radioligand binding, adrenergic α1B ([3H]Prazosin)
Details: compound at 0.03 μM; [3H]Prazosin; repeat assays, each datapoint shown; read-out: Percentage inhibition of ligand binding, Adrenergic α1B
Provide only the numeric value, understood in %.

INSERT INTO assay_data (molecule, study_target, measured_property, numeric_value) VALUES
  ('Cc1ccc2c(c1)c1c(n2CC(O)c2ccncc2)CN(C)CC1 (single isomer, unassigned)', 'rat adrenergic α1B receptor (Rattus norvegicus, UniProt P15823)', 'inhibition at 0.03 µM', 24);

Input line: inhibition at 0.03 µM for Cc1ccc2c(c1)c1c(n2CC(N)c2ccncc2)CCN(C)C1 (single isomer, unassigned) [27a] ?
Output line: 34

Input line: So what does the record say about inhibition at 0.03 µM for Cc1ccc2c(c1)c1c(n2CC(O)c2ccncc2)CCN(C)CC1 (single isomer, unassigned) [13b] ?
Output line: 68

Input line: inhibition at 0.03 µM for CN1CCc2c(c3cc(Cl)ccc3n2CC(C)(O)c2cccnc2)C1 (single isomer, unassigned) [31a] ?
Output line: 16

Input line: Looking for the measured inhibition at 0.03 µM of Cc1cnc2c(c1)c1c(n2CC(C)(O)c2cccnc2)CCN2CCCC12 (single isomer, unassigned) [26a] , can you help?
Output line: 32

Input line: Field request: inhibition at 0.03 µM | item: Cc1ccc2c(c1)c1c(n2CC(C)(O)c2cccnc2)CCN(C)C1 (single isomer, unassigned)
Output line: 10
